// values below are reported self-splicing fitness (ln)
- assay summary: self-splicing fitness, log relative to wild type (ln ratio); higher = more splicing; Tetrahymena group I intron in knt gene, E. coli kanamycin selection, DiMSum; sequences stand for … in CUCUCU…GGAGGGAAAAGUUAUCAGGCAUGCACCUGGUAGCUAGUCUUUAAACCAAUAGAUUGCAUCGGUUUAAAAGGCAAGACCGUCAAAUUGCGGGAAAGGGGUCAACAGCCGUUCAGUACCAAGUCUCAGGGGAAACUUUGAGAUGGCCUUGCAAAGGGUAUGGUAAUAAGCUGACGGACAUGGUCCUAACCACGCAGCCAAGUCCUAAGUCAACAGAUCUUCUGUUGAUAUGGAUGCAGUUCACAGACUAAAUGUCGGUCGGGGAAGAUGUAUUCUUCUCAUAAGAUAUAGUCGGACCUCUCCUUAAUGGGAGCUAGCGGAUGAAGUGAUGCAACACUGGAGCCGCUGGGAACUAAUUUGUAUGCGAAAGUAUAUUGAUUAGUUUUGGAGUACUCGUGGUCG;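 note: selection with 25 µg/mL kanamycin versus none on LB agar overnight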
- condition parameters: 37 °C
value kind: self-splicing fitness (ln)

sequence string: GGUUAGCAAUAUUACGGGAG
value kind: self-splicing fitness (ln)
obs value: -2.55
--
sequence string: CAUCAGCAAUAUUACGGGUG
value kind: self-splicing fitness (ln)
obs value: -2.71
--
sequence string: UUCAAGCAAUAUUACGGCAG
value kind: self-splicing fitness (ln)
obs value: -0.45
--
sequence string: GAAAAGCAAUAUUACGUGUC
value kind: self-splicing fitness (ln)
obs value: -2.33
--
sequence string: AUGUAGCAAUAUUACGAAAG
value kind: self-splicing fitness (ln)
obs value: -2.2
--
sequence string: AGGUAGCAAUAUUACGCUUU
value kind: self-splicing fitness (ln)
obs value: -1.76
--
sequence string: GAUUAGCAAUAUUACGAGAC
value kind: self-splicing fitness (ln)
obs value: -1.1
--
sequence string: AUCUAGCAAUAUUACGUACC
value kind: self-splicing fitness (ln)
obs value: -0.395
--
sequence string: AUACAGCAAUAUUACGGAGU
value kind: self-splicing fitness (ln)
obs value: -1.72
--
sequence string: UGUAAGCAAUAUUACGGGCU
value kind: self-splicing fitness (ln)
obs value: -0.63
--
sequence string: UACCAGCAAUAUUACGAUAA
value kind: self-splicing fitness (ln)
obs value: -0.122
--
sequence string: CAUUAGCAAUAUUACGCUAC
value kind: self-splicing fitness (ln)
obs value: -2.13
--
sequence string: UACGAGCAAUAUUACGUUUU
value kind: self-splicing fitness (ln)
obs value: -2.4
--
sequence string: CCAGAGCAAUAUUACGUUUA
value kind: self-splicing fitness (ln)
obs value: -1.78
--
sequence string: CCUGAGCAAUAUUACGUAAC
value kind: self-splicing fitness (ln)
obs value: -2.3
--
sequence string: CGAGAGCAAUAUUACGUUAC
value kind: self-splicing fitness (ln)
obs value: -2.29
